# experimental.system: UniProt:P56450
# Sequence (P56450 whole entry): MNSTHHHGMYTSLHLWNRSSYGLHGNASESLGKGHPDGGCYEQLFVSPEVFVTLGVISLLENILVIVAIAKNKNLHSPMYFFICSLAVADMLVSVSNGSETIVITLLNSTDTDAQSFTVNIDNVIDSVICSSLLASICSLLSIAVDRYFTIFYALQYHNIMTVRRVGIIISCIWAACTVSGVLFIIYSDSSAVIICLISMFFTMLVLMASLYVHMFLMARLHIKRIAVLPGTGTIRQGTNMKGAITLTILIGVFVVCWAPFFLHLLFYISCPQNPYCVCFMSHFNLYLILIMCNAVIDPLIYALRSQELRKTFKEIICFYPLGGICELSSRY
# test.protocol: Agonist activity at mouse MC4R expressed in HEK293 cells by beta-galactosidase reporter gene assay
Peptide text beside a SMILES is read from it.
Consider the cut-off 2000 nM. If the recorded EC50 is strictly smaller, the label is 1; if not, the label is 0.

Example results:
{"columns": ["molecule", "label"],
 "data": [
  ["N=C(N)NCCC[C@@H]1NC(=O)[C@@H](Cc2ccccc2)NC(=O)CN(Cc2ccccc2)C(=O)CCCC(=O)NCCN(CC(N)=O)C(=O)[C@H](Cc2c[nH]c3ccccc23)NC1=O", 1],
  ["CC(=O)NCC(=O)N[C@@H](Cc1ccccc1)C(=O)N(CC(=O)N[C@@H](CCCNC(=N)N)C(=O)N[C@@H](Cc1c[nH]c2ccccc12)C(=O)NCC(N)=O)Cc1ccccc1 (HELM PEPTIDE1{[ac].G.F.[O=C(CN(Cc1ccccc1)[*:1])[*:2]].R.W.G.[am]}$$$$V2.0)", 1],
  ["CC(=O)NCC(=O)N(CC(=O)N[C@H](Cc1ccccc1)C(=O)N[C@@H](CCCNC(=N)N)C(=O)N[C@@H](Cc1c[nH]c2ccccc12)C(=O)NCC(N)=O)Cc1ccccc1", 0]
]}

Kindly consider the entry below.
Would you kindly verify if EC50 of "N=C(N)NCCC[C@@H]1NC(=O)[C@@H](Cc2ccccc2)NC(=O)CN(Cc2ccccc2)C(=O)CCC(=O)NCCN(CC(N)=O)C(=O)[C@H](Cc2c[nH]c3ccccc23)NC1=O" is strictly less than 2000 nM? 1

This collection of values is drawn from ChEMBL document CHEMBL1159118.
